Biological target: Carboxy-terminal domain RNA polymerase II polypeptide A small phosphatase 1 (Homo sapiens, UniProt Q9GZU7)
Sequence (Q9GZU7 whole entry): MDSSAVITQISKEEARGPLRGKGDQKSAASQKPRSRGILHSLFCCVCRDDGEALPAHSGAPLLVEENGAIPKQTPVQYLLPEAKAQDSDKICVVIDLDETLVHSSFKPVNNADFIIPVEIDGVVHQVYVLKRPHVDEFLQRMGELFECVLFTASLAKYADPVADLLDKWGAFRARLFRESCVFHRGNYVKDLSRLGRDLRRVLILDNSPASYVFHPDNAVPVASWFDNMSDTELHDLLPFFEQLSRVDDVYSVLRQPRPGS
Experiment: inhibitors of CTDSP1, concentration-response testing, biochemical assay, absorbance-based, actives from ultra-high-throughput screening (AID 540297)
Format: functional
The source made the active and inactive calls.
parameter: IC50

Cc1ccc(-c2cc(C(=O)NCc3ccco3)c3ccccc3n2)o1 = 4.39 µM (active)
O=C(O)CCNc1ccc(Cl)cc1 = 16.9 µM (active)
CSc1ccc(/C=N/NC(=O)c2cccc(Cl)c2)cc1 = 13.4 µM (active)
Cc1ccn2c(=O)nc(SCC(=O)NCc3ccco3)nc2c1 = 10.8 µM (active)
O=C(COc1ccc2ccccc2c1)NNC(=O)c1ccc([N+](=O)[O-])cc1 = 6.67 µM (active)
N=c1c2ccccc2nnn1-c1ccc(C(F)(F)F)cc1 = 8.01 µM (active)

Now for a further molecule.
Req: Provide IC50 value for the following molecule: `O=C(Nc1ccccc1C(F)(F)F)NC1(C(=O)N2CCOCC2)CCCCC1`
Resp: 4.66 µM (active)

====

Catalogue of AC50 values
system: INS1; assay: beta cell apoptosis inhibitors, cytokine rescue, dose response, luminescence, retest (AID 449756); format: functional, cell-based; conditions: Rattus norvegicus;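 further: cell death triggered by IL-1 beta plus TNF-alpha plus IFN-gamma mixture; protective hits raise ATP signal compared with cytokine alone wells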
Activity calls are given as the source filed them.

Illustrative cases are given below, each with its answer.
Brc1ccccc1CN1CCN(Cc2c[nH]c3ccccc23)CC1 = 2.16 µM (active)
Oc1ccccc1/C=N/Nc1nc2ccccc2o1 = 1.59 µM (active)

Req: Provide AC50 value for the following compound: `CCCCCn1c(=O)c(C(=O)NCc2ccccc2Cl)c(O)c2ccccc21`
Resp: 8.04 µM (active)

Req: Provide AC50 value for the following compound: `O=C(OCn1ncc(Cl)c(Cl)c1=O)c1ccccc1Cl`
Resp: 5.37 µM (active)

Req: Provide AC50 value for the following compound: `O=C(NCCN(CCNC(=O)c1nc[nH]c1C(=O)Nc1ccc(Cl)cc1)CCNC(=O)c1nc[nH]c1C(=O)Nc1ccc(Cl)cc1)c1nc[nH]c1C(=O)Nc1ccc(Cl)cc1`
Resp: 7.12 µM (active)

Req: Provide AC50 value for the following compound: `COc1ccc(Cc2nc(-c3ccc(NC(=O)c4cccnc4)cc3)no2)cc1`
Resp: < 0.195 µM (active)

Req: Provide AC50 value for the following compound: `Cc1ccc(NNC(=O)c2ccno2)cc1Cl`
Resp: 7.1 µM (active)

====

Catalogue of AC50 values
target: Cytochrome P450 2D6 (Homo sapiens);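 further: CYP2D6 member of a cytochrome P450 panel assay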
Sequence (P10635 whole entry): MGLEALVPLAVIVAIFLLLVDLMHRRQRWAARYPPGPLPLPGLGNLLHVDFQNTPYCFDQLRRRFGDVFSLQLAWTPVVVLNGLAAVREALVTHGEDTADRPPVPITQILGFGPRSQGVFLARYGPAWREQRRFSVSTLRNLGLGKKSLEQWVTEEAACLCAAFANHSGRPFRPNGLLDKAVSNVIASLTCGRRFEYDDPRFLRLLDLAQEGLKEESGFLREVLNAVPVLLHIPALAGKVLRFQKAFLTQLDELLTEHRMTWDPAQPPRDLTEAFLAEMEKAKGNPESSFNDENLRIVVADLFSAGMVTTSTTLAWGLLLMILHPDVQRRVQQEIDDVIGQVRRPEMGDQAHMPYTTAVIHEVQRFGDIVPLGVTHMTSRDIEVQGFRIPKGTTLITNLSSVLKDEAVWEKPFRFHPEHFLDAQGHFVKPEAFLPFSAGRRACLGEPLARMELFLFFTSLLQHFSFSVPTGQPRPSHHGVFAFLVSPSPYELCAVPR

Illustrative cases are given below, each with its answer.
O=C(NNC(=O)c1cc(-c2ccc(Cl)c(Cl)c2)nc2ccccc12)Nc1ccccc1 = 20 µM (inconclusive)
CN(C)c1ccc(-c2cncnc2NCc2cccs2)cc1 = 39.8 µM (inconclusive)
CCc1nnc(NS(=O)(=O)c2ccc(/N=C/c3c(C)nn(-c4ccc(C)cc4)c3O)cc2)s1 = 5.62 µM (inconclusive)

Req: Check Cytochrome P450 2D6 (Homo sapiens) data and give AC50 for `O=C(CNC(=O)c1ccccc1)NCC(=O)OCc1ccc(Cl)cc1` .
Resp: 20 µM (inconclusive)

Req: Check Cytochrome P450 2D6 (Homo sapiens) data and give AC50 for CCCC(=O)/N=C1\SC2CS(=O)(=O)CC2N1c1ccc(CC)cc1 (configuration not stated) .
Resp: 15.8 µM (inconclusive)

Req: Check Cytochrome P450 2D6 (Homo sapiens) data and give AC50 for `COc1ccc2[nH]cc(CCNc3ncnc4ccc(-c5ccc(C(=O)N(C)C)cc5)cc34)c2c1` .
Resp: 25.1 µM (inconclusive)

Req: Check Cytochrome P450 2D6 (Homo sapiens) data and give AC50 for `Cc1nc2cnc(Nc3ccccc3)nc2n(C)c1=O` .
Resp: 39.8 µM (inconclusive)

Req: Check Cytochrome P450 2D6 (Homo sapiens) data and give AC50 for `COc1ccc(C2=Nc3cccc4cccc(c34)N2)cc1` .
Resp: 1.41 µM (inconclusive)

Req: Check Cytochrome P450 2D6 (Homo sapiens) data and give AC50 for `CCCN1CCc2cccc3c2[C@@H]1Cc1ccc(O)c(O)c1-3` .
Resp: 10 µM (inconclusive)

Req: Check Cytochrome P450 2D6 (Homo sapiens) data and give AC50 for `O=C(N/N=C/c1cccnc1)c1ccc([N+](=O)[O-])cc1` .
Resp: 14.1 µM (inconclusive)

Req: Check Cytochrome P450 2D6 (Homo sapiens) data and give AC50 for `CC1(C)N=C(N)N=C(N)N1c1cccc(OCc2cccc([N+](=O)[O-])c2)c1` .
Resp: 3.16 µM (inconclusive)

Req: Check Cytochrome P450 2D6 (Homo sapiens) data and give AC50 for `O=C(O)[C@@H]1[C@@H]2C[C@H]3c4[nH]c5ccccc5c4CCN3C[C@@H]2CC[C@@H]1O` .
Resp: 7.94 µM (inconclusive)
